Just for reference, patent US6355659B1 is where these values come from.

Target: SIGMA-2 (σ2) (Homo sapiens, UniProt Q5BJF2)
Sequence (Q5BJF2 whole entry): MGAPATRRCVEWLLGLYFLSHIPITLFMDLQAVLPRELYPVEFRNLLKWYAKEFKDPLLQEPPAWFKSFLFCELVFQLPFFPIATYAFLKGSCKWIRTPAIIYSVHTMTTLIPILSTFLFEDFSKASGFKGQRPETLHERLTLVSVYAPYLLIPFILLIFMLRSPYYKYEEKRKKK
Where a name gives a salt, the structure may show the parent alone.
Measured Parameter: Ki (nM)
State just the number; it will be interpreted in nM.

# input Record request: Ki value, item Clc1ccc(C2=CCN(CCCCn3cncn3)CC2)cc1 [Example 2, hydrochloride]
# output 465

* * *

Biological target: SIGMA-1 (σ1) (Homo sapiens)
Sequence (Q99720 whole entry): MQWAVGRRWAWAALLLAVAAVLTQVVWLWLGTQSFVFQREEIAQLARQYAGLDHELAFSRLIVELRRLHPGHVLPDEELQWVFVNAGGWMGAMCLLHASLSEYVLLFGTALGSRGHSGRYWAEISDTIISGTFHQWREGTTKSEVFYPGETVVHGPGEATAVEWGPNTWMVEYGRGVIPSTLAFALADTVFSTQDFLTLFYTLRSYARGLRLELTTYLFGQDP
Structures can show the parent of a compound that is named as a salt.
Measured Parameter: Ki
Number first, unit second: that is the form wanted.

# input For SIGMA-1 (σ1) (Homo sapiens), provide Ki of Clc1ccc(C2=CCN(CCCCn3cncn3)CC2)cc1 [Example 2, hydrochloride] please.
# output 3.7 nM
